Listed here are molecules together with their documented melting point.
// units = °C; emit number, no label

Some solved cases for reference:
The recorded melting point for entry Cc1cccc(O)c1O equals 68

The recorded melting point for entry c1ccc(Cc2c3ccccc3c(Cc3ccccc3)c3ccccc23)cc1 equals 246

The recorded melting point for entry Sc1ccc(Br)cc1 equals 73

Next:
The recorded melting point for entry CC(=O)CCc1ccccc1 equals -13

* * *

- test settings: fish
Listed here are compounds together with their documented log10 BCF.
Format: numeric value only, no unit, no commentary.

Some solved cases for reference:
The recorded log10 BCF for entry Nc1nc[nH]n1 equals 0.49

The recorded log10 BCF for entry Cc1ccc(C)cc1 equals 1.17

Lab note: next compound to report on.
The recorded log10 BCF for entry c1ccc2c(c1)ccc1ccccc12 equals 3.4
